assay: Permeability of the compound from apical to basolateral side in human Caco-2 cells; type: ADME, cell-based; settings: read-out: permeability
readout_type: Papp A→B

                           structure_string            value
0  CC/C(=C(/c1ccc(/C=C/C(=O)O)cc1)c1[nH]c2ccccc2c1Cl)c1ccc(F)cc1Cl  0.94 ×10⁻⁶ cm/s

---

biological target: Cytochrome P450 2C9 (Homo sapiens)
Sequence (P11712 whole entry): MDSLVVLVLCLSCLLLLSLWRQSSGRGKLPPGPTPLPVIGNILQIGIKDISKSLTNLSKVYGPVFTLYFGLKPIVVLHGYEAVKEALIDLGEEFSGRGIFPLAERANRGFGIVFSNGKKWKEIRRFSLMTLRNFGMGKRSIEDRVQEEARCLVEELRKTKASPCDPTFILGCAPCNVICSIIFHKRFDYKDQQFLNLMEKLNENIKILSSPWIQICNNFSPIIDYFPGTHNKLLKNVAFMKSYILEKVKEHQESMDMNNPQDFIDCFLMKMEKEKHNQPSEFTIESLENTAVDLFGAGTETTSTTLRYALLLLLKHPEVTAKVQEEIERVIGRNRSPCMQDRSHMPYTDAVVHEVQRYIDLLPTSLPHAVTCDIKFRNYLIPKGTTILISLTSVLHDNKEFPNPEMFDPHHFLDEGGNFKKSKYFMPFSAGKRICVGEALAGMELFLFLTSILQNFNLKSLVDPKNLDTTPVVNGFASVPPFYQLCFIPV
readout_type: IC50 (µM)

>>> print(df.to_string())
                           structure_string                 experimental_target  readout_type  value
0  CC/C(=C(/c1ccc(/C=C/C(=O)O)cc1)c1[nH]c2ccccc2c1Cl)c1ccc(F)cc1Cl  Cytochrome P450 2C9 (Homo sapiens)          IC50    5.1
